List of Human primary T Cell Binding (FOI) values.
Molecular target: T1, human CD3 expressed on cells (human, UniProt P07766 23-207; P04234 22-171; P09693 23-182)
T1 construct: whole, on cells; CD3 complex on Jurkat cells and on human primary T cells
T1 sequence (P07766 23-207, chain 1 of 3): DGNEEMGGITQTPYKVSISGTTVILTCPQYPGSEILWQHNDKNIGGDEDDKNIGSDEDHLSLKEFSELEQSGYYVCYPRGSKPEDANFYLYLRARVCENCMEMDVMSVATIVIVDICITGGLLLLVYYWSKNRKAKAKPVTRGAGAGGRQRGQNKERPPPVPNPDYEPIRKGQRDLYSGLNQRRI
T1 sequence (P04234 22-171, chain 2 of 3): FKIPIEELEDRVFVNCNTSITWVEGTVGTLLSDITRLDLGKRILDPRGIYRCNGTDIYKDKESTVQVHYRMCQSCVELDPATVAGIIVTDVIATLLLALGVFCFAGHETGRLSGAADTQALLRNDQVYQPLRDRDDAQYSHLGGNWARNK
T1 sequence (P09693 23-182, chain 3 of 3): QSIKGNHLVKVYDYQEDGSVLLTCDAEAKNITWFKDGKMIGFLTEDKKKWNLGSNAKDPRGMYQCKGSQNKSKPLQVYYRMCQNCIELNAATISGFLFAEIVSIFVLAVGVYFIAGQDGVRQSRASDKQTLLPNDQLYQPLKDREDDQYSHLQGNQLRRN
Experiment: flow cytometry, 25 nM
// return numeric value only (unit: FOI, not printed)

mAb 115 (antibody, V domains shown) VH: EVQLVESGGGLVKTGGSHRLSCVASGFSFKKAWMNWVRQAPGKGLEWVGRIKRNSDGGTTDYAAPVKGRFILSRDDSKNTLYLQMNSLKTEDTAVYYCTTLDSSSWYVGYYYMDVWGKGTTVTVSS VL: DIQMTQSPSSVSASVGDRVTITCRASQDINNWLAWYQQKPGKAPKILIYTASNLQSGVPSRFSGSGSGTDFTLTISSLQPEDFATYFCQQAHGLPITFGQGTRLEIK
174
mAb 67 (antibody, V domains shown) VH: EVQLVESGGDLVQPGRSLRLSCAASGFTFDDCVIHWVRQAPGKGLEWVSGITWNSGRIGYADSVKGRFTISRDNAKNSLYLQMNSLRVEDTALYYCAKEGNYDFWSTYYRGYFDLWGRGTLVTVSS VL: DIQMTQSPSSLSASVGDRVTITCRASQGIRNDLGWYQQKPGIAPKRLIYAASSLQGGVPLRFSGSGSGTEFTLTISSLQPEDFATYYCLQHNSYPYTFGQGTKLEIK
72.4

Next up:
I am curious: what Human primary T Cell Binding (FOI) value has been reported for mAb 130 (antibody, V domains shown) VH: EVQLVESGGGLVKTGGSLRLSCVASGFSFKKAWMNWVRQAPGKGLEWVGRIKRNSDGGATDYAAPVKDRFTLSRDDSKNTLYLQMNSLKTEDTAVYYCTTLDSSSWYVGYYYMDVWGKGTTVTVSS VL: DIHMTQSPSSVSASLGDRVTFTCRASQDINNWLAWYQQRPGKAPKLLIYTASSLQSGVPSRFSGSGSGTDFTLTISSLQPEDFATYYCQQAHSLPITFGQGTRLGIK ?
165
